Active and inactive are the calls of the source.
Entries below carry reported Kd on UniProt:P17252.

Enquiry: So what's the measured Kd for this one? Cc1cc(Nc2ncc(Cl)c(Nc3ccccc3S(=O)(=O)C(C)C)n2)c(OC(C)C)cc1C1CCNCC1
Return: > 30 µM (inactive)

* * *

Molecular target: Mitogen-activated protein kinase kinase kinase kinase 4 (Homo sapiens); also: in the data inactive means no Kd found up to 30 µM
Sequence (O95819 whole entry): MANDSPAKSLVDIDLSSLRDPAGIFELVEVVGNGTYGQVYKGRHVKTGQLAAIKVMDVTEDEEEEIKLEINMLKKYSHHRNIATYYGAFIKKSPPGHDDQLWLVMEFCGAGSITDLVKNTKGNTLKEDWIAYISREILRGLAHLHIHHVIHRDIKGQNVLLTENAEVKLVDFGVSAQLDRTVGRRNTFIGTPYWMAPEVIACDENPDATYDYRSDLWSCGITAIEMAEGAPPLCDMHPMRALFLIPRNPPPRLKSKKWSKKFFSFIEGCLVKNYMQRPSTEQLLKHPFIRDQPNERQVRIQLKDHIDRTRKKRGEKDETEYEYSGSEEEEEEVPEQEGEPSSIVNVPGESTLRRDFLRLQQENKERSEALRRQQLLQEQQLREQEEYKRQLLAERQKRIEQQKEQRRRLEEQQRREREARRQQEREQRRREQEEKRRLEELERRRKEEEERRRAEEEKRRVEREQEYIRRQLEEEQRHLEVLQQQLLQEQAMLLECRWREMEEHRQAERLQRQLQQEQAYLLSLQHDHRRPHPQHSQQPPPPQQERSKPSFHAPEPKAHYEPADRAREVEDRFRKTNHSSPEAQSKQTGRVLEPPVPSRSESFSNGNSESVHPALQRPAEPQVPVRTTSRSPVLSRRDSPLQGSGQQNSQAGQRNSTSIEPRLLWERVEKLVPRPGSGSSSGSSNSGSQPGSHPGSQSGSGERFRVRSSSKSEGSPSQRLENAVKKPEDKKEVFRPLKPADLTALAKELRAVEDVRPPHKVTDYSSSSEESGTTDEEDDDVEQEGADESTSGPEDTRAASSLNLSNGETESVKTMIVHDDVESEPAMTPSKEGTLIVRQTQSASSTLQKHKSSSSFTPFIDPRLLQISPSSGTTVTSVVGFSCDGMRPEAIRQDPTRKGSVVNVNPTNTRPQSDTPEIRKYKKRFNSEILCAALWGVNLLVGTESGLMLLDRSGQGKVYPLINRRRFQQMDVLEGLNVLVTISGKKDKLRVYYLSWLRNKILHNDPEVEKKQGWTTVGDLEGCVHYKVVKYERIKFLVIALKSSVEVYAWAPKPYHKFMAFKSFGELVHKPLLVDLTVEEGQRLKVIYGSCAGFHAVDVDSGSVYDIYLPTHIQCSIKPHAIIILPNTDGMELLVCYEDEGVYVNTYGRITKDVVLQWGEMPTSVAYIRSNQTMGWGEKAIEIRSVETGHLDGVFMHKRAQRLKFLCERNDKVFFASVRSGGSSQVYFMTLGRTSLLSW
Activity calls are given as the source filed them.
Form entry, call: pick from active, inactive

Solved cases below.
INSERT INTO results (cpd_smiles, measured_target, label_class) VALUES
  ('COc1ccc(S(=O)(=O)N(C(C)=O)c2ccccc2/C=C/c2cc[n+]([O-])cc2)cc1', 'Mitogen-activated protein kinase kinase kinase kinase 4 (Homo sapiens)', 'inactive'),
  ('Cc1nc(Nc2n[nH]c3c2CN(C(=O)N[C@H](CN(C)C)c2ccccc2)C3(C)C)c2sccc2n1', 'Mitogen-activated protein kinase kinase kinase kinase 4 (Homo sapiens)', 'inactive'),
  ('COc1ncc(-c2ccc3nccc(-c4ccnnc4)c3c2)cc1NS(=O)(=O)c1ccc(F)cc1F', 'Mitogen-activated protein kinase kinase kinase kinase 4 (Homo sapiens)', 'inactive'),
  ('FC(F)(F)c1ccc(/C=C/c2nc(COc3ccc(CCCCn4ccnn4)cc3)co2)cc1', 'Mitogen-activated protein kinase kinase kinase kinase 4 (Homo sapiens)', 'inactive'),
  ('CCOc1cc2ncc(C#N)c(Nc3ccc(F)c(Cl)c3)c2cc1NC(=O)/C=C/CN(C)C', 'Mitogen-activated protein kinase kinase kinase kinase 4 (Homo sapiens)', 'inactive'),
  ('CN(C[C@@H]1COCCO1)S(=O)(=O)Nc1ccc2ccc3ncc(-c4cnn(C)c4)cc3c(=O)c2c1', 'Mitogen-activated protein kinase kinase kinase kinase 4 (Homo sapiens)', 'inactive'),
  ('CO[C@H]1C[C@@H]2CC[C@@H](C)[C@@](O)(O2)C(=O)C(=O)N2CCCC[C@H]2C(=O)O[C@H]([C@H](C)C[C@@H]2CC[C@@H](O)[C@H](OC)C2)CC(=O)[C@H](C)/C=C(\C)[C@@H](O)[C@@H](OC)C(=O)[C@H](C)C[C@H](C)/C=C/C=C/C=C/1C', 'Mitogen-activated protein kinase kinase kinase kinase 4 (Homo sapiens)', 'inactive'),
  ('CNC(=O)c1cc(Oc2ccc(NC(=O)Nc3cc(C(C)(C)C)nn3-c3ccc4ncccc4c3)c(F)c2)ccn1', 'Mitogen-activated protein kinase kinase kinase kinase 4 (Homo sapiens)', 'active'),
  ('Cc1nc2cc(-n3ncc(C(=O)c4cc5ccccc5[nH]4)c3N)ccc2[nH]1', 'Mitogen-activated protein kinase kinase kinase kinase 4 (Homo sapiens)', 'inactive');

Next, consider the following compound.
Enquiry: State the result this test recorded for Cc1cnc(NC(=O)Nc2cc(Br)c(C)cc2OC[C@@H]2CNCCO2)cn1 .
Return: inactive

* * *

Reported Kd values for a set of molecules
Biological target: Membrane-associated progesterone receptor component 1 (Homo sapiens); also: in the data inactive means no Kd found up to 30 µM
Sequence (O00264 whole entry): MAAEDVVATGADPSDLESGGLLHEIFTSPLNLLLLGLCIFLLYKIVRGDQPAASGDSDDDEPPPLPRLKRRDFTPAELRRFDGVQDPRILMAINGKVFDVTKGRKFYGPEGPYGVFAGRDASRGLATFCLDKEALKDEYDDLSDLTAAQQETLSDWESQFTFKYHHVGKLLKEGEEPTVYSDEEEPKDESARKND
Counter-ions that a name gives are not always drawn. Activity calls are given as the source filed them.

These recorded examples may help you get a feel for the data.
INSERT INTO assay_data (molecule, readout_value) VALUES
  ('O=C(Nc1nc2cccc(-c3ccc(CN4CCS(=O)(=O)CC4)cc3)n2n1)C1CC1', '> 30 µM (inactive)'),
  ('COc1ncc(-c2ccc3nccc(-c4ccnnc4)c3c2)cc1NS(=O)(=O)c1ccc(F)cc1F', '> 30 µM (inactive)'),
  ('Cc1nc2cc(-c3nn(C(C)C)c4ncnc(N)c34)ccc2o1', '> 30 µM (inactive)'),
  ('NC(=O)c1c(OCc2c(F)cc(Br)cc2F)nsc1NC(=O)NCCCCN1CCCC1', '> 30 µM (inactive)'),
  ('COc1cc(Nc2ncc3c(n2)-c2ccc(Cl)cc2C(c2c(F)cccc2OC)=NC3)ccc1C(=O)O', '> 30 µM (inactive)');

Enquiry: # value lookup — system Membrane-associated progesterone receptor component 1 (Homo sapiens), readout Kd, item O=C(NOCCO)c1cc(CN2OCCCC2=O)c(F)c(F)c1Nc1ccc(I)cc1F; also: in the data inactive means no Kd found up to 30 µM
Return: > 30 µM (inactive)

Enquiry: # value lookup — system Membrane-associated progesterone receptor component 1 (Homo sapiens), readout Kd, item Cc1cc(C(=O)NOCCO)c(Nc2ccc(I)cc2F)n(C)c1=O; also: in the data inactive means no Kd found up to 30 µM
Return: > 30 µM (inactive)

Enquiry: # value lookup — system Membrane-associated progesterone receptor component 1 (Homo sapiens), readout Kd, item C[C@@H](Oc1cc(C(=O)Nc2ccc(C(=O)N3CCN(C)CC3)cc2)nnc1N)c1c(Cl)ccc(F)c1Cl; also: in the data inactive means no Kd found up to 30 µM
Return: > 30 µM (inactive)

Enquiry: # value lookup — system Membrane-associated progesterone receptor component 1 (Homo sapiens), readout Kd, item O=C1NC(=O)[C@@H](c2cn3c4c(cccc24)CCC3)[C@@H]1c1c[nH]c2ccccc12 [TIVANTINIB]; also: in the data inactive means no Kd found up to 30 µM
Return: > 30 µM (inactive)

Enquiry: # value lookup — system Membrane-associated progesterone receptor component 1 (Homo sapiens), readout Kd, item CCS(=O)(=O)N1CCN(c2ccc(Nc3ncc(C(N)=O)c(NC4CC4)n3)cc2)CC1 [Cerdulatinib Hydrochloride]; also: in the data inactive means no Kd found up to 30 µM
Return: > 30 µM (inactive)
